The values you see were collected from patent US9512175B2.

In this section, each of the molecules is paired with its reported pIC50.
Biological target: cyclophilin A (Homo sapiens)
Sequence (P62937 whole entry, species assumed): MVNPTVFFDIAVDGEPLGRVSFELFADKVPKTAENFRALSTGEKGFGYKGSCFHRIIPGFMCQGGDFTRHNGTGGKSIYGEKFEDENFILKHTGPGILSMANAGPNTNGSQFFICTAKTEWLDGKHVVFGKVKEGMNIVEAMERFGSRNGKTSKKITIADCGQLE
Test: Cyclophilin A TR-FRET competitive binding assay
Conditions: IC50 ranges; competition with CsA-Cy5 for His-tagged CypA, two-hour incubation; read-out: TR-FRET
Description: Cyclophilin A TR-FRET Competitive Binding Assay Inhibitor potency was measured using a competitive binding assay with a time-resolved fluorescence resonance energy transfer (TR-FRET) readout. […] An IC50 value was calculated using a four-parameter logistic fit.
pIC50: −log10 of the molar value.

MOLECULE: CC(C)[C@@H]1NC(=O)CCc2ccc(cc2)-c2cccc(c2)[C@@H](C)OC(=O)[C@@H]2CCCN(N2)C(=O)[C@H](C)NC1=O [Compound 43]
pIC50: > 7.00
//
MOLECULE: CC(C)[C@@H]1NC(=O)C2(/C=C/c3ccc4ccc(nc4c3)[C@@H](C)NC(=O)[C@@H]3CCCN(N3)C(=O)[C@H](C)NC1=O)CCC(F)(F)CC2 [Compound 122]
pIC50: > 7.00
//
MOLECULE: CC(C)[C@@H]1NC(=O)C(C)(C)CCc2ccc3cnc(cc3c2)[C@@H](C)OC(=O)[C@@H]2CCCN(N2)C(=O)[C@H](C)NC1=O [Compound 18]
pIC50: > 7.00
//
MOLECULE: CC(C)[C@@H]1NC(=O)C(C)(C)/C=C/c2ccc3c(Cl)cc(nc3c2)[C@@H](C)OC(=O)[C@@H]2CCCN(N2)C(=O)[C@H](C)NC1=O [Compound 138]
pIC50: > 7.00
//
MOLECULE: CO[C@@H]1CC/C=C/c2cccc(c2)C2CCCCN2C(=O)[C@@H]2CCCN(N2)C(=O)[C@H](C)NC(=O)[C@H](C(C)C)NC(=O)[C@@H]1C (stereo partly drawn) [Compound 28]
pIC50: 6.00 to 7.00
//
MOLECULE: CC[C@@H]1/C=C/c2cc3cc(ccc3cn2)[C@@H](C)OC(=O)[C@@H]2CCCN(N2)C(=O)[C@H](C)NC(=O)[C@H](C(C)C)NC1=O [Compound 19]
pIC50: > 7.00
